# tested-on: T1, human CD3 on human T cells (Jurkat) (human, UniProt P07766 23-207; P04234 22-171; P09693 23-182)
# T1 construct: whole, on cells; also called huCD3+; cell surface CD3 on human (Jurkat) T cells
# procedure-summary: flow cytometry, Jurkat cells, 40 nM antibody
For each entry below, report its MFI value.
Numbers only.

For orientation, consider the following solved cases.
binder | result-number
HuL6H2 (Fab, V domains shown, Humanized Fab expressed in Expi293F; also called VL6 + VH2 humanized Fab) VH: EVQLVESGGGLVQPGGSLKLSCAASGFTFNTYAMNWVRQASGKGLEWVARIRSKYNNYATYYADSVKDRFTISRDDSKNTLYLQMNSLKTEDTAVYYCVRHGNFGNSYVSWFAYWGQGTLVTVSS VL: QAVVTQEPSLTVSPGGTVTLTCRSSTGAVTTSNYANWFQQKPDHLPRTLIYGTNKRAPGTPARFSGSLLGDKAALTISGAQPEDEAEYYCALWYSNLWVFGGGTKLTVL | 598
HuL8H2 (Fab, V domains shown, Humanized Fab expressed in Expi293F; also called VL8 + VH2 humanized Fab) VH: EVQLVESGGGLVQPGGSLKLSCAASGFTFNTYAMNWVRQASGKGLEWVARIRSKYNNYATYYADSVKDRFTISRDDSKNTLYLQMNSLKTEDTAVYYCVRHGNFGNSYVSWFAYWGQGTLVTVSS VL: QAVVTQEPSLTVSPGGTVTLTCGSSTGAVTTSNYANWVQQKPDHLFRGLIGGTNKRAPGTPARFSGSLLGGKAALTISGAQPEDEAEYYCALWYSNLWVFGGGTKLTVL | 22000

// moving on: another record for MFI
Query MFI for HuL4H2 (Fab, V domains shown, Humanized Fab expressed in Expi293F; also called VL4 + VH2 humanized Fab) VH: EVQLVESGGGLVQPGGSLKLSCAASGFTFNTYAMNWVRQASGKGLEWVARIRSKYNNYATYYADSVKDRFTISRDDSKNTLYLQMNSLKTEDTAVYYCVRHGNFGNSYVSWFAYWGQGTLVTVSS VL: QAVVTQEPSLTVSPGGTVTLTCGSSTGAVTTSNYANWVQQKPGQAFRGLIYGTNKRAPWTPARFSGSLLGDKAALTISGAQPEDEAEYYCALWYSNLWVFGGGTKLTVL
620
